# Test system: HCC1954 cells (with PI3Kα H1047R mutation)
# protocol: In vitro inhibition of HCC1954 cell proliferation (CellTiter-Lumi)
# Type: cell-based
# measurementSetup: Homo sapiens, HCC1954, 144 h, HCC1954 cells, 144 h, CellTiter-Lumi; numeric values; read-out: Inhibitory activity against HCC1954 cells (IC50)
pIC50: −log10 of the molar value.
observationType: pIC50

                                        smi  observationtype  assayresult
0  C=CC(=O)N(C)c1ccc(N2CC(N3CCN(c4ccc5c(c4)-c4nc(N6C(=O)OC[C@H]6C(F)F)cn4CCO5)CC3)C2)cc1            pIC50         7.12

1 = C=CC(=O)N1CC[C@@H](C(=O)NCC(=O)N2CCN(c3ccc4c(c3)-c3nc(N5C(=O)OC[C@H]5C(F)F)cn3CCO4)CC2)C1
2 = C=CC(=O)Nc1ccc(N2CC[C@@H](CN3CCN(c4ccc5c(c4)-c4nc(N6C(=O)OC[C@H]6C(F)F)cn4CCO5)CC3)C2)cc1
Form field 'greater pIC50' accepts 1 or 2 ; which applies? Which one? Tell me its label.
1

====

IC50 reference
# Test system: MCF-7 cells (with PI3Kα E545K mutation)
# protocol: In vitro inhibition of MCF-7 cell proliferation (CellTiter-Lumi)
# Assay type: cell-based
# measurementSetup: Homo sapiens, MCF7, 144 h, class symbols, read-out: Inhibitory activity against MCF-7 cells (IC50), class symbols

>>> df
                                        smi  observationtype   assayresult
0  C=CC(=O)N1CCC(C2CN(c3ccc(-c4ccc5c(c4)-c4nc(N6C(=O)OC[C@H]6C(F)F)cn4CCO5)cc3)C2)CC1             IC50  50 to 100 nM
1  CN(C1COC1)C(C)(C)C=C(C#N)C(=O)Nc1ncc(N2CC(N3CCN(c4ccc5c(c4)-c4nc(N6C(=O)OC[C@H]6C(F)F)cn4CCO5)CC3)C2)cn1             IC50       < 50 nM
2  CNC1(C=C(C#N)C(=O)Nc2ccc(N3CC(N4CCN(c5ccc6c(c5)-c5nc(N7C(=O)OC[C@H]7C(F)F)cn5CCO6)CC4)C3)nc2)CC1             IC50       < 50 nM
3  CC(C)=CC(=O)CCC(=O)N1CCN(Cc2ccc3c(c2)-c2nc(N4C(=O)OC[C@H]4C(F)F)cn2CCO3)CC1             IC50       < 50 nM
4  CC(C)(O)C=C(C#N)C(=O)Nc1ccc(N2CC(N3CCN(c4ccc5c(c4)-c4nc(N6C(=O)OC[C@H]6C(F)F)cn4CCO5)CC3)C2)c(F)c1             IC50       < 50 nM

Next:
Form entry - test system: MCF-7 cells (with PI3Kα E545K mutation); read-out: IC50; molecule: `C=CC(=O)Nc1ccc2c(c1)CCN(CC#Cc1ccc3c(c1)-c1nc(N4C(=O)OC[C@H]4C(F)F)cn1CCO3)C2`
< 50 nM

====

# Tested on: HCC1954 cells (with PI3Kα H1047R mutation)
# protocol: In vitro inhibition of HCC1954 cell proliferation (CellTiter-Lumi)
# Assay type: cell-based
# measurementSetup: Homo sapiens, HCC1954, 144 h, HCC1954 cells, 144 h, CellTiter-Lumi; numeric values; read-out: Inhibitory activity against HCC1954 cells (IC50)
pIC50: −log10 of the molar value.
observationType: pIC50

Worked cases, answers included:
>>> print(df.to_string())
                                        smi  assayresult
0  C=CC(=O)N1CCN(CCC(=O)N2CCN(c3ccc4c(c3)-c3nc(N5C(=O)OC[C@H]5C(F)F)cn3CCO4)CC2)CC1         6.06
1  C=C(F)C(=O)Nc1ccc(N2CC(N3CCN(c4ccc5c(c4)-c4nc(N6C(=O)OC[C@H]6C(F)F)cn4CCO5)CC3)C2)cc1         7.28
2  C=CC(=O)Nc1ccc(N2CCC3(CCN(c4ccc5c(c4)-c4nc(N6C(=O)OC[C@H]6C(F)F)cn4CCO5)CC3)C2)cc1         6.52
3  C=CC(=O)Nc1ccc(N2CC(N3CCN(c4ccc5c(c4)-c4nc(N6C(=O)OC[C@H]6C(F)F)cn4CCO5)CC3)C2)cn1         8.52

1 = C=CC(=O)N1CCC(CCC(=O)N2CCN(c3ccc4c(c3)-c3nc(N5C(=O)OC[C@H]5C(F)F)cn3CCO4)CC2)CC1
2 = CC(C)(C=C(C#N)C(=O)Nc1ccc(N2CC(N3CCN(c4ccc5c(c4)-c4nc(N6C(=O)OC[C@H]6C(F)F)cn4CCO5)CC3)C2)cc1)N1CC2(COC2)C1
Identify the item whose pIC50 is the smaller number: 1 or 2 Which one? Tell me its label.
1
